# KOR Antagonist %Imax ± SEM per record follows
Target: UniProt P41145
Sequence (P41145 whole entry): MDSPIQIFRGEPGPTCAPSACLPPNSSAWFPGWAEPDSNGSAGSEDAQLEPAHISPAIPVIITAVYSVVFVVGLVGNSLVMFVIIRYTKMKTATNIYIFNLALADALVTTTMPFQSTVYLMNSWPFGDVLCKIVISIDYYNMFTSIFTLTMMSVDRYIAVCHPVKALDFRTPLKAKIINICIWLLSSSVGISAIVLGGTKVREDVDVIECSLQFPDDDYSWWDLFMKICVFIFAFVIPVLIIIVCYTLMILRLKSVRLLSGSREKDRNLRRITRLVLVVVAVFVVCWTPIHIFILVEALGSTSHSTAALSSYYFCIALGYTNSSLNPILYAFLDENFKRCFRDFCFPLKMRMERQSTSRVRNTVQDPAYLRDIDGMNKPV
Conditions: versus EC90 of U50488H; normalized to nor-BNI
A number alone suffices; assume %.

Answered cases to consult:
{"Compound": "C=C[C@H]1[C@H]2CCC[C@]1(c1cccc(O)c1)CCN2CCc1ccccc1 [Compound 8]", "Unit Name": "%", "KOR Antagonist %Imax ± SEM": 97.1}
{"Compound": "C=C[C@@H]1[C@@H]2CCC[C@@]1(c1cccc(O)c1)CCN2CCc1ccccc1 [Compound 14]", "Unit Name": "%", "KOR Antagonist %Imax ± SEM": 105.6}
{"Compound": "CC/C=C\\[C@@H]1[C@H]2CCC[C@]1(c1cccc(O)c1)CCN2CCc1ccccc1 [Compound 24]", "Unit Name": "%", "KOR Antagonist %Imax ± SEM": 103.8}
{"Compound": "CC/C=C\\[C@@H]1[C@@H]2CCC[C@@]1(c1cccc(O)c1)CCN2CCc1ccccc1 [Compound 26]", "Unit Name": "%", "KOR Antagonist %Imax ± SEM": 96.2}
{"Compound": "C/C=C\\[C@@H]1[C@H]2CCC[C@]1(c1cccc(O)c1)CCN2CCc1ccccc1 [Compound 18]", "Unit Name": "%", "KOR Antagonist %Imax ± SEM": 114.8}

Query string: Request the reported KOR Antagonist %Imax ± SEM associated with C/C=C\[C@H]1[C@H]2CCC[C@]1(c1cccc(O)c1)CCN2CCc1ccccc1 [Compound 17]
Result string: 111.6

Query string: // returns reported KOR Antagonist %Imax ± SEM for input C/C=C\[C@@H]1[C@@H]2CCC[C@@]1(c1cccc(O)c1)CCN2CCc1ccccc1 [Compound 21]
Result string: 111.8

Query string: Tell me the measured KOR Antagonist %Imax ± SEM of CC/C=C\[C@H]1[C@@H]2CCC[C@@]1(c1cccc(O)c1)CCN2CCc1ccccc1 [Compound 27] , please.
Result string: 98.2

Query string: // query KOR Antagonist %Imax ± SEM value for entry C=C[C@@H]1[C@H]2CCC[C@]1(c1cccc(O)c1)CCN2CCc1ccccc1 [Compound 9]
Result string: 101.8

Query string: Need KOR Antagonist %Imax ± SEM of C/C=C\[C@H]1[C@@H]2CCC[C@@]1(c1cccc(O)c1)CCN2CCc1ccccc1 [Compound 20] , thanks.
Result string: 126.7

Query string: Which measured KOR Antagonist %Imax ± SEM value corresponds to CC/C=C\[C@H]1[C@H]2CCC[C@]1(c1cccc(O)c1)CCN2CCc1ccccc1 [Compound 23] ?
Result string: 109.5

Query string: # get_value(readout='KOR Antagonist %Imax ± SEM', item= C=C[C@H]1[C@@H]2CCC[C@@]1(c1cccc(O)c1)CCN2CCc1ccccc1 [Compound 15] )
Result string: 104.9

* * *

Biological target: human δ-opioid receptor (OPRD1) (Homo sapiens)
Sequence (P41143 whole entry): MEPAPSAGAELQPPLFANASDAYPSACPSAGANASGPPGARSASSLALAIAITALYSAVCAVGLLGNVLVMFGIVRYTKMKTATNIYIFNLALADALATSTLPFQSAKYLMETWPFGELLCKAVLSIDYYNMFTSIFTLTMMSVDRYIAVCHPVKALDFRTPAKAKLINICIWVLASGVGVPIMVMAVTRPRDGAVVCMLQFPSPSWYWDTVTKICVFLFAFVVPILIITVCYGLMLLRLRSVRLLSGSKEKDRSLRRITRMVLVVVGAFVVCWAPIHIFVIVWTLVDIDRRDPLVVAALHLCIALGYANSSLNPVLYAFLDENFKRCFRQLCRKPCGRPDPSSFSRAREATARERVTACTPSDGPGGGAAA
Experiment: Forskolin-induced cAMP accumulation assay, DOR agonist mode
pEC50: −log10 of the molar value.
Recorded measurements of pEC50, one per entry

Use these answered entries as a reference point.
{"Smiles Representation": "CC/C=C\\[C@@H]1[C@H]2CCC[C@]1(c1cccc(O)c1)CCN2CCc1ccccc1", "pEC50": "< 5.00"}
{"Smiles Representation": "CC/C=C\\[C@@H]1[C@@H]2CCC[C@@]1(c1cccc(O)c1)CCN2CCc1ccccc1", "pEC50": "< 5.00"}
{"Smiles Representation": "C/C=C\\[C@@H]1[C@@H]2CCC[C@@]1(c1cccc(O)c1)CCN2CCc1ccccc1", "pEC50": 7.22}

Query string: Short answer please: pEC50, human δ-opioid receptor (OPRD1) (Homo sapiens), entry CC/C=C\[C@H]1[C@H]2CCC[C@]1(c1cccc(O)c1)CCN2CCc1ccccc1
Result string: < 5.00

Query string: Observed pEC50 on human δ-opioid receptor (OPRD1) (Homo sapiens) for C=C[C@H]1[C@@H]2CCC[C@@]1(c1cccc(O)c1)CCN2CCc1ccccc1 , please.
Result string: < 5.00
